Tested on: SK-MEL-2
Method Summary: NCI tumour cell line growth inhibition, 48 h
Activity calls are given as the source filed them. Cut-off read from the data, not from the text of the source: active = GI50 up to about 1.1 µM and inactive = higher.

Molecule | GI50
COc1cccc(-c2cc(=O)c3cc(C)c(C)c(C(=O)O)c3o2)c1 | > 100 µM (inactive)
CC(C)(C)OC(=O)N/N=C(/N)Cc1ccccc1 | > 100 µM (inactive)
O=C1Nc2ccccc2/C1=C/c1ccccc1 | 14.3 µM (inactive)
O=C(Nc1cccc(C(F)(F)F)c1)O/N=C(/Cl)CCl | 67.6 µM (inactive)
S=C1c2ccccc2N=C(NC2CCCC2)C2CSCN12 (configuration not stated) | > 100 µM (inactive)
CCCN1C(=O)CNC(=O)c2[nH]cnc21 | > 100 µM (inactive)
CN(C)c1ccc(/C=C(\NC(=O)c2ccccc2)C(=O)NC(CC(=O)O)C(=O)O)cc1 (configuration not stated) | > 100 µM (inactive)

###

Each item that follows carries a reported GI50.
Tested on: RPMI-8226
Method Summary: NCI tumour cell line growth inhibition, 48 h
Active and inactive are the calls of the source. No stated cut-off is given here; in the data, active = GI50 up to about 1.1 µM and inactive = higher.
Measured Metric: GI50

Molecule | Value Observed
[O-]c1c[n+](-c2ccccc2)no1 | > 100 µM (inactive)
COC(=O)C1SC(SC)=NC12c1ccccc1Nc1ccccc12 (stereo unspecified) | 21.2 µM (inactive)
CC1(O)CCn2c(=O)c3cc4ccccc4cc3c(=O)n2C1O (stereo unspecified) | > 100 µM (inactive)
O=C(O)CSC(CC(=O)c1ccc(Cl)cc1)c1ccc(Cl)cc1 (stereo unspecified) | 6.95 µM (inactive)
O=C(O)c1c2c(cc3c1CC1(Cc4ccccc4C1=O)C3)CCC2 (stereo unspecified) | 18.4 µM (inactive)
COc1ccc(C2N3CCCCC3[C@@H]3c4[nH]c5ccccc5c4CCN23)c(OC)c1 (stereo partly specified) | 15.8 µM (inactive)

###

Tested on: EKVX
Method Summary: NCI tumour cell line growth inhibition, 48 h
The source made the active and inactive calls. No stated cut-off is given here; in the data, active = GI50 up to about 1.1 µM and inactive = higher.
Measured Metric: GI50

Compound | Value Observed
C=CCn1cc(C(=O)NC(=O)NCCCCCOC(=O)CCCCCCCCCCC(=O)OCCCCCNC(=O)NC(=O)c2cn(CC=C)c(=O)n(C)c2=O)c(=O)n(C)c1=O | > 100 µM (inactive)
Cc1cn(CCCCCOC(=O)NC(CCCNC(N)=O)C(=O)O)c(=O)[nH]c1=O (centres undefined) | > 100 µM (inactive)
COC(=O)C1=C(c2ccc(OC)c(OC)c2)OC(c2ccc(OC)c(OC)c2)C1 (centres undefined) | 39.7 µM (inactive)
CCN(CC)c1ccc2c(c1)N=C1N=CC=CN1C2(c1ccc(N(C)C)cc1)c1ccc(N(C)C)cc1 | 9.73 µM (inactive)

###

Tested on: K562
Method Summary: NCI tumour cell line growth inhibition, 48 h
The source made the active and inactive calls. Rule as the data show it: active = GI50 up to about 1.1 µM and inactive = higher.
Classes used: true (1) (active), false (0) (inactive)

Compound | Category Label
COC1OC(C(=O)O)C2OC(C)(C)OC12 (centres undefined) | false (0)
NC(=S)NS(=O)(=O)c1ccc(Cl)cc1Cl | false (0)
COc1ccc2[nH]c3nnc(N)c-3nc2c1 | false (0)
CC(C)CCC[C@@H](C)[C@H]1CC[C@H]2[C@@H]3CC[C@H]4C[C@@H](CCC=C(c5cc(Cl)c(O)c(C(=O)O)c5)c5cc(Cl)c(O)c(C(=O)O)c5)CC[C@]4(C)[C@H]3CC[C@]12C | false (0)
COc1cc(Cn2c3c(c4c(C(=O)NCCN(C)C)c(O)ccc42)C(=O)c2ccccc2C3=O)cc(OC)c1 | false (0)
CC(C)c1ccc(O)c(=O)c(O)c1.CC(C)c1ccc(O)c(=O)cc1.CC(C)c1cccc(=O)c(O)c1.CC(C)c1ccccc(=O)c1O | true (1)
O=c1[nH]c(C2CCCCC2)nc2cc(Cl)ccc12 | false (0)
CN(C)c1cccc2c(S(=O)(=O)NCCCNCCN)cccc12 | false (0)
CCCCCC(/C=C/[C@@H]1[C@@H](C(O)CCCCCC(=O)OC)C(=O)C[C@H]1O[Si](C)(C)C(C)(C)C)OCOCCOC (some centres undefined) | false (0)
